- study_target: T1, Factor VIIIa (recombinant FVIII, Kogenate FS, activated with alpha-thrombin) (UniProt P00451 20-2351)
- T1 construct: also called FVIIIa
- T1 sequence (looked up): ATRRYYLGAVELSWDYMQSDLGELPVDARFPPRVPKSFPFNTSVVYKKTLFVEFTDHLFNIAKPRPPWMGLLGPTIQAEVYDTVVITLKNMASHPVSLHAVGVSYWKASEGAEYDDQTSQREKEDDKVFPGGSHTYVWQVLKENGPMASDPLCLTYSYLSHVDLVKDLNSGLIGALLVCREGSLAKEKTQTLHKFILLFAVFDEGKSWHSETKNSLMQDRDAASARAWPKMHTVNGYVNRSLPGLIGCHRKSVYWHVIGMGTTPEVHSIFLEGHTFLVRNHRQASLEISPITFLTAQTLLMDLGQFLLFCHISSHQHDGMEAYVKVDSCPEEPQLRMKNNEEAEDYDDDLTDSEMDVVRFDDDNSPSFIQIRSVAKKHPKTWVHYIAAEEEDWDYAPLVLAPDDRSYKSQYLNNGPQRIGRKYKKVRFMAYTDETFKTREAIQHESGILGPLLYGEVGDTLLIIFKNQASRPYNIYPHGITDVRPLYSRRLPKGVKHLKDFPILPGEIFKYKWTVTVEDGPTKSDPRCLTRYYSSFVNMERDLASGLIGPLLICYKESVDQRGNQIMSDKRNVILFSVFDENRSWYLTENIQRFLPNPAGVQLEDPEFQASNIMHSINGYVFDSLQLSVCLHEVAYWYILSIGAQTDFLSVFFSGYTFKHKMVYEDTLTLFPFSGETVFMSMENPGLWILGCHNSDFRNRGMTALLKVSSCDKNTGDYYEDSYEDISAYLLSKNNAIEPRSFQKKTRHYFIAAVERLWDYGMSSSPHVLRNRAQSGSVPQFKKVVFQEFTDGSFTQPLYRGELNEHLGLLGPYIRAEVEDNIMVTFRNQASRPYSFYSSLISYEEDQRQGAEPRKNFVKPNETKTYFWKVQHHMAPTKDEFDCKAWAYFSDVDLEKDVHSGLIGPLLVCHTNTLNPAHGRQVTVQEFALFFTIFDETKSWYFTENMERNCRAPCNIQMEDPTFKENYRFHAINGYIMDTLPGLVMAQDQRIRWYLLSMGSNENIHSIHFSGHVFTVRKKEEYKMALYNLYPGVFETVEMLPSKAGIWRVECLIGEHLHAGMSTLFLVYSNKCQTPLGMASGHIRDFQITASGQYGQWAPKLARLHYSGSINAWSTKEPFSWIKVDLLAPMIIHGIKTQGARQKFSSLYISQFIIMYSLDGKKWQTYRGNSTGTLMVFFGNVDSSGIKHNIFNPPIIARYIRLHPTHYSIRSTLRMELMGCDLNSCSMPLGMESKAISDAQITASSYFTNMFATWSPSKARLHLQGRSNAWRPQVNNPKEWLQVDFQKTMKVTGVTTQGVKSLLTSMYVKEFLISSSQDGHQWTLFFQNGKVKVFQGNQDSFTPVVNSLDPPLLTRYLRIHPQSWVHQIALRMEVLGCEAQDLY
- test_details: functional cofactor affinity KD-app: fluorogenic FX activation (Xase) assay, FVIIIa titrated, PC/PS vesicles, saturating FX
test_readout: Kd (nM)
Supply the numeric figure in nM, leaving out any unit text.

A selection of reference data follows.
>>> reported_value("FIXa-K247N/N249S/R318Y/R338E/T343R (enzyme, also called K82N/N84S/R150Y/R170E/T175R (chymotrypsin numbering)) chain 1: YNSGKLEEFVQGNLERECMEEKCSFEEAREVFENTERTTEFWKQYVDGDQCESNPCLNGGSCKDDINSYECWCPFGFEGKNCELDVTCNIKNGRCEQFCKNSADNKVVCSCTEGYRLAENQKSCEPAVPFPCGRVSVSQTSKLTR chain 2: VVGGEDAKPGQFPWQVVLNGKVDAFCGGSIVNEKWIVTAAHCVETGVKITVVAGEHNIEETEHTEQNRSVIRIIPHHNYNAAINKYNHDIALLELDEPLVLNSYVTPICIADKEYTNIFLKFGSGYVSGWGRVFHKGYSALVLQYLRVPLVDRATCLESTKFRIYNNMFCAGFHEGGRDSCQGDSGGPHVTEVEGTSFLTGIISWGEECAMKGKYGIYTKVSRYVNWIKEKTKLT")
14.7
>>> reported_value("FIXa-R318Y/R338E/T343R/E410N (enzyme, also called R150Y/R170E/T175R/E240N (chymotrypsin numbering)) chain 1: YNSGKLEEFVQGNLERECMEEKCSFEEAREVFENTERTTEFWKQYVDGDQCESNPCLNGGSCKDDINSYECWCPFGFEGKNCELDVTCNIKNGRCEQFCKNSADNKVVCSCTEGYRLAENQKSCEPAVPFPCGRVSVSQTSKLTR chain 2: VVGGEDAKPGQFPWQVVLNGKVDAFCGGSIVNEKWIVTAAHCVETGVKITVVAGEHNIEETEHTEQKRNVIRIIPHHNYNAAINKYNHDIALLELDEPLVLNSYVTPICIADKEYTNIFLKFGSGYVSGWGRVFHKGYSALVLQYLRVPLVDRATCLESTKFRIYNNMFCAGFHEGGRDSCQGDSGGPHVTEVEGTSFLTGIISWGEECAMKGKYGIYTKVSRYVNWIKNKTKLT")
6.1
>>> reported_value("FIXa-K228N/R318Y/R338E/T343R/R403E/E410N (enzyme, also called K63N/R150Y/R170E/T175R/R233E/E240N (chymotrypsin numbering)) chain 1: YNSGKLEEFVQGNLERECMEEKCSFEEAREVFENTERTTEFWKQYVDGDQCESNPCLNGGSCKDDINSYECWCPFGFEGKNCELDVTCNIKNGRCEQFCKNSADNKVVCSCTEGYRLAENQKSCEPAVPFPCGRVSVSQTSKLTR chain 2: VVGGEDAKPGQFPWQVVLNGKVDAFCGGSIVNEKWIVTAAHCVETGVNITVVAGEHNIEETEHTEQKRNVIRIIPHHNYNAAINKYNHDIALLELDEPLVLNSYVTPICIADKEYTNIFLKFGSGYVSGWGRVFHKGYSALVLQYLRVPLVDRATCLESTKFRIYNNMFCAGFHEGGRDSCQGDSGGPHVTEVEGTSFLTGIISWGEECAMKGKYGIYTKVSEYVNWIKNKTKLT")
17.5
>>> reported_value("FIXa-Y155F/R338E/T343R/R403E (enzyme) chain 1: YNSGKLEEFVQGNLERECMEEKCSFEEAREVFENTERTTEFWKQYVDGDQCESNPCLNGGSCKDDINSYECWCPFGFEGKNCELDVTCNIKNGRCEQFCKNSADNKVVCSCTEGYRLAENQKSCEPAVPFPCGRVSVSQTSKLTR chain 2: VVGGEDAKPGQFPWQVVLNGKVDAFCGGSIVNEKWIVTAAHCVETGVKITVVAGEHNIEETEHTEQKRNVIRIIPHHNYNAAINKYNHDIALLELDEPLVLNSYVTPICIADKEYTNIFLKFGSGYVSGWGRVFHKGRSALVLQYLRVPLVDRATCLESTKFRIYNNMFCAGFHEGGRDSCQGDSGGPHVTEVEGTSFLTGIISWGEECAMKGKYGIYTKVSEYVNWIKEKTKLT")
72.1
>>> reported_value("FIXa-R338E/T343R/R403E (enzyme, also called R170E/T175R/R233E (chymotrypsin numbering)) chain 1: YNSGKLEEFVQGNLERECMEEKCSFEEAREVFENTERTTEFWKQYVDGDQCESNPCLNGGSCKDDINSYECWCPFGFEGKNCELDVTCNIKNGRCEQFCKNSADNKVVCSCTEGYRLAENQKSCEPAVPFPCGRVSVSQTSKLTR chain 2: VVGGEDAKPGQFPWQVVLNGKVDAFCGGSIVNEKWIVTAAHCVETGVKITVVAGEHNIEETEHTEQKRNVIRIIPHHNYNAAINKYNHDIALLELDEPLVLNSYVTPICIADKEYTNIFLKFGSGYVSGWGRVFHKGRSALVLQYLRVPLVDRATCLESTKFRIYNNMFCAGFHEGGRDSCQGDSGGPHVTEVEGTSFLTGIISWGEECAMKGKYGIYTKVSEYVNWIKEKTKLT")
55
>>> reported_value("FIXa-Y155F/K228N/K247N/N249S/R318Y/R338E/T343R/R403E/E410N (enzyme) chain 1: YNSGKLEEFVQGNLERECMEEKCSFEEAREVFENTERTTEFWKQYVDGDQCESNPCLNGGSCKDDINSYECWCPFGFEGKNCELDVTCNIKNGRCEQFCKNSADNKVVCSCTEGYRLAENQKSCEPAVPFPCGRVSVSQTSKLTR chain 2: VVGGEDAKPGQFPWQVVLNGKVDAFCGGSIVNEKWIVTAAHCVETGVNITVVAGEHNIEETEHTEQNRSVIRIIPHHNYNAAINKYNHDIALLELDEPLVLNSYVTPICIADKEYTNIFLKFGSGYVSGWGRVFHKGYSALVLQYLRVPLVDRATCLESTKFRIYNNMFCAGFHEGGRDSCQGDSGGPHVTEVEGTSFLTGIISWGEECAMKGKYGIYTKVSEYVNWIKNKTKLT")
37

stdin: Retrieve Kd measured for FIXa-Y155F/R318Y/R338E/T343R/E410N (enzyme) chain 1: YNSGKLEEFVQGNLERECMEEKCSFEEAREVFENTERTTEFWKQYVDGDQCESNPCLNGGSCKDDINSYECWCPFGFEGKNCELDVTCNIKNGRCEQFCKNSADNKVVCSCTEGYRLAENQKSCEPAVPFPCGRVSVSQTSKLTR chain 2: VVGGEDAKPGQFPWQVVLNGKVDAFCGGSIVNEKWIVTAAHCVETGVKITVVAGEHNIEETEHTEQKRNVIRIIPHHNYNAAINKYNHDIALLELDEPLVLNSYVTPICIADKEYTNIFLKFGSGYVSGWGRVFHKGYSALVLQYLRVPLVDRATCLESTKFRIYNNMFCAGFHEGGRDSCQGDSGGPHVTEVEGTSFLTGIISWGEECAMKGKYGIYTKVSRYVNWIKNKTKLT and print it.
stdout: 7.4
